Values from ChEMBL document CHEMBL5385901

Listed here: items and their measured log10 IC50 at 72 h.
# assay_procedure: Antiproliferative activity against human PIG1 cells assessed as cell growth inhibition incubated for 72 hrs by CCK8 assay
# Assay type: toxicity, cell-based
All values: base-10 log of IC50 at 72 h in µM.

compound: CCCCCCNCCCOc1ccccc1C(=O)CCCc1ccccc1
log10 IC50 at 72 h: 0.96

compound: CCCNCCCOc1cc2c(cc1C(=O)CCCc1ccccc1)OCCO2
log10 IC50 at 72 h: 1.19

compound: O=C(CCCc1ccccc1)c1c(OCCCN2CCOCC2)ccc2ccccc12
log10 IC50 at 72 h: 1.26

compound: CCCCNCCCOc1ccccc1C(=O)CCCc1ccccc1
log10 IC50 at 72 h: 0.96

What value of log10 IC50 at 72 h has been reported for the following compound? C=C(CCc1ccccc1)c1ccccc1OCC(O)CNCCC (configuration not stated)
1.21

Subsequent entry: `CCCNCCCOc1cccc2cccc(C(=O)CCCc3ccccc3)c12`
0.83

Subsequent entry: CCCOCC(O)COc1ccccc1C(=O)CCc1ccccc1 (configuration not stated)
1.87

Subsequent entry: `CCCCCCCNCCCOc1ccccc1C(=O)CCCc1ccccc1`
-0.30

Subsequent entry: `C=CCNCCCOc1ccc2ccccc2c1C(=O)CCCc1ccccc1`
1.06

Subsequent entry: `CCCCCNCCCOc1ccccc1C(=O)CCCc1ccccc1`
0.28

Subsequent entry: CCCCCCCNCC(O)COc1ccccc1C(=O)CCc1ccccc1 (configuration not stated)
0.94
